biological target: 229E FP peptide (229E); experiment: peptide ELISA
property_label: EC50 (µg/mL)
Numbers only; they are read as µg/mL.

State, in one line, measured EC50 of fp.002 (antibody, V domains shown) VH: VQLVESGGGVVQPGTSLRLSCAGSGFNFDNYAIHWVRQAPGQGLEWVAIISYEARNKKYAGSVTGRFSISRDNSKSMVYLQMDSLRGEDTAVYYCARDLFLSDYDRSGYDPTRGGFDLWGQGTLVTVSS VL: EIVMTQSPATLSVSPGERATLSCRASQSVSSSLAWYQHKLGQAPRLLIYGASTRATGIPGRFSGSGSGTEFTLTISSLQSEDVAIYYCQQYGDWPLVTFGGGTKVEIK 0.0176
